Recorded values, source patent US10654794B2.

- ASSAY NAME: Pharmacokinetic evaluation in rats
- Assay type: in vivo, Male SD rats
- CONDITION SUMMARY: male, SD, rat, plasma, iv, 5 mg/kg, I.V., 5 mg/kg, read-out: Area under curve AUC0-inf
VALUE KIND: AUC(0-inf) (ng·h/mL)

NC[C@@]1(CC(=O)O)C2CC[C@H]3C[C@@H]2[C@@H]1C3 (single isomer, unassigned) :: 8210
NC[C@@]1(CC(=O)O)[C@@H]2C[C@@H]3CC[C@H]1[C@H]2C3 (racemic) :: 6800

P = NC[C@@]1(CC(=O)O)[C@@H]2C[C@H]3C[C@@H]2[C@@H]1C3
Q = NCC1(CC(=O)O)C2CCC3CC2C1C3 (stereo not shown)
Request: In the pair P and Q , the larger recorded AUC(0-inf) belongs to which? Kindly state the label of the option you pick.
Result: P
